System: Vero E6 infected with SARS-CoV-2
Assay: inhibition of SARS-CoV-2 cytopathic effect; higher = more antiviral protection, active = above 15
Details: 1 nM; 48 h
reported.endpoint: inhibition of SARS-CoV-2 cytopathic effect (%)
Only the number, expressed in %, is required.

Request: Need inhibition of SARS-CoV-2 cytopathic effect of CC(C)NCC(O)c1ccc(N)c(C#N)c1 (stereo not given) [cimaterol] , thanks.
Result: 6.86

Request: Need inhibition of SARS-CoV-2 cytopathic effect of COc1ccccc1OCC(O)CN1CCN(CC(=O)Nc2c(C)cccc2C)CC1 (stereo not given) [ranolazine] , thanks.
Result: 0.1

Request: Need inhibition of SARS-CoV-2 cytopathic effect of CC1=C(C(=O)O)N2C(=O)[C@@H](NC(=O)[C@H](N)c3ccccc3)[C@H]2SC1 [cephalexin] , thanks.
Result: 2.47

Request: Need inhibition of SARS-CoV-2 cytopathic effect of CCC(Cc1c(I)cc(I)c(N)c1I)C(=O)O (stereo not given) [iopanic-acid] , thanks.
Result: 2.78

Request: Need inhibition of SARS-CoV-2 cytopathic effect of COC1=CC(=O)C[C@@H](C)[C@]12Oc1c(Cl)c(OC)cc(OC)c1C2=O [griseofulvin] , thanks.
Result: 1.17

Request: Need inhibition of SARS-CoV-2 cytopathic effect of COc1cc(NS(=O)(=O)c2ccc(N)cc2)nc(OC)n1 [sulphadimethoxine] , thanks.
Result: -0.84

Request: Need inhibition of SARS-CoV-2 cytopathic effect of `COc1ccccc1C(=O)Nc1cccc(NC(=O)c2cccc(C)c2)c1` , thanks.
Result: 1.89

Request: Need inhibition of SARS-CoV-2 cytopathic effect of Oc1c(Cl)cc(Cl)c2cccnc12 [chloroxine] , thanks.
Result: 2.69

Request: Need inhibition of SARS-CoV-2 cytopathic effect of Nc1c(-c2cccc(C(F)(F)F)c2)nsc1C(=O)O [amflutizole] , thanks.
Result: -1.13

Request: Need inhibition of SARS-CoV-2 cytopathic effect of CNCCCC1(c2ccccc2)OC(C)(C)c2ccccc21 (stereo not given) [talopram] , thanks.
Result: -0.51
